Assign Percent Effect to each entry below.
Tested on: Wolbachia pipientis
procedure_summary: Anti-Wolbachia Cell-Based Screen
Format: functional
Design: scale not given: in the data most compounds retested in dose-response had high values
condition_context: 5 µM
About 13,000 (27%) of roughly 48,000 compounds showed an effect of 50% or more. The list shows a part of the results.
Numbers only, in %.

compound=CS(=O)(=O)N1CC[C@@H]2[C@@H]1CCN2Cc1ccc2c(c1)OCO2.O=C(O)C(F)(F)F assayed_system="Wolbachia pipientis" readout_kind="Percent Effect" number=-17.32
compound=Cc1nnc(CN(C)S(=O)(=O)c2ccc(Br)cc2Cl)n1C assayed_system="Wolbachia pipientis" readout_kind="Percent Effect" number=5.813
compound=Cc1cc(N[C@H](CO)COCc2ccccc2)n2nc(C)cc2n1 assayed_system="Wolbachia pipientis" readout_kind="Percent Effect" number=2.305
compound=O=C(NCCc1csc(-c2cnccn2)n1)c1cnn[nH]1 assayed_system="Wolbachia pipientis" readout_kind="Percent Effect" number=-5.851
compound=COCCCN1CC2(CCC1=O)CCN(Cc1cc(C(C)C)no1)CC2 assayed_system="Wolbachia pipientis" readout_kind="Percent Effect" number=-3.554
compound=CN1CCN(Cc2ccccc2CNC(=O)c2ccc(Br)cc2)CC1 assayed_system="Wolbachia pipientis" readout_kind="Percent Effect" number=1.874
compound="COc1cccc(COCC(=O)N2CCCC(n3ccnc3)C2)c1 (stereo not drawn)" assayed_system="Wolbachia pipientis" readout_kind="Percent Effect" number=-0.4033
compound="Cc1ccnc(N2CCC(=O)N(Cc3ccc(F)cc3)C(C(C)C)C2)n1 (stereo not drawn)" assayed_system="Wolbachia pipientis" readout_kind="Percent Effect" number=-3.35
compound=Cn1ccc(C(=O)NCc2ccccc2CN2CCCCC2)cc1=O assayed_system="Wolbachia pipientis" readout_kind="Percent Effect" number=100.5
compound=CN(C)S(=O)(=O)N1CC[C@]2(C[C@H](OCc3ccccn3)CO2)C1.O=C(O)C(F)(F)F assayed_system="Wolbachia pipientis" readout_kind="Percent Effect" number=14.62

// for each compound below, give its Percent Effect
1. CN(CC1COc2ccccc2O1)C(=O)NCCCn1cncn1 (stereo not drawn)
2. COc1cc(C(=O)N2CC[C@@H](NC(=O)c3ccccn3)[C@H](O)C2)ccn1
3. Cc1ccccc1C(C)NC(=O)CN1CCN(Cc2ccc(Br)s2)CC1 (stereo not drawn)

[-12.38, -8.714, 1.299]

Kindly give each listed record's Percent Effect.
1. COCCn1cncc1CN1CCCC(C(=O)Cc2ccccc2)C1 (stereo not drawn)
2. c1cnc(OCc2nnc3n2CCN(CC2CC2)C3)nc1
3. CCn1cnnc1CNC(=O)N(C)Cc1c(F)cccc1Cl

-2.141
-18.49
-9.877

For each entry beneath this line, provide reported Percent Effect.
1. CC(O)CN1CCC(CN(C)Cc2ccc(C(N)=O)cc2)CC1 (stereo not drawn)
2. Cc1sc2nc(C(F)(F)F)nc(N3CCC(NS(C)(=O)=O)CC3)c2c1C
3. O=C(C1CC1)N1CCc2[nH]cnc2C12CCN(C1CCOCC1)CC2
4. CN1CCN(Cc2ccccc2CNC(=O)c2ccc(Br)cc2F)CC1
5. O=C(COCCOc1ccccc1)N1CCCC(n2ccnc2)C1 (stereo not drawn)

3.378
11.4
-3.543
7.367
75.36

Dear colleague, could you send me Percent Effect for each of the items below? Thanks.
1. O=C(COCCc1ccccc1)N1CCCC(n2cccn2)C1 (stereo not drawn)
2. Cc1ccc(NS(C)(=O)=O)c(C(=O)NCCC(=O)NC(C)C)c1

[5.674, -8.186]

Cited source for all entries: ChEMBL document CHEMBL3988442
